# target-or-system: recombinant soluble homotrimeric HA of A/Netherlands/219/03 (H7N7) (Influenza A virus A/Netherlands/219/03(H7N7))
# test-method-notes: trimeric HA microarray, transfection supernatant set 4
# conditions-used: remark: other sources report otherwise
experimental-endpoint: Trimeric HA Binding: RLU (RLU)

# binder, measured-number
measured = [
    ("TCN-504 (3251_K17) (antibody, V domains shown) VH: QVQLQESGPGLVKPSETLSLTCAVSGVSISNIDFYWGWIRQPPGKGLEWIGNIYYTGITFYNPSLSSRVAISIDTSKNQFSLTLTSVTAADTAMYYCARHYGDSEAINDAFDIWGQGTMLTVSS VL: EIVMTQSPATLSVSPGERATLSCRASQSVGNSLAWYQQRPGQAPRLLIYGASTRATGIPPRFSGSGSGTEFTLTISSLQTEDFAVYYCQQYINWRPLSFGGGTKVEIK", 6710),
]
